Reported %Inh is given for each of the following molecules.
Tested on: DCAMKL2
Construct: gene DCLK2
Conditions: concentration: 1 μM, replicates: in singlicate; n = 1
Number only, in %; omit the unit.

Study these solved cases before continuing.
# molecule, experimental-endpoint, unit-tag, assay-value
rows = [
    ("Cl.Oc1ccc(-c2nc(-c3ccccc3)[nH]c2-c2ccncc2)cc1 [SB-428218]", "%Inh", "%", 15),
    ("O=C(O)COc1ncnc2cc(-c3ccc4[nH]ncc4c3)sc12", "%Inh", "%", 2),
    ("Cc1ccc(-c2cc(-c3c[nH]nc3-c3ccccn3)ccn2)cc1 [GW684088]", "%Inh", "%", 24),
    ("CS(=O)(=O)c1ccc(-c2c(-c3ncn[nH]3)sc(N3CCOCC3)c2C#N)cc1", "%Inh", "%", 23),
    ("CCn1c(-c2ccccn2)nc2cnccc21 [SB-736398]", "%Inh", "%", 0),
]

Ask | Give DCAMKL2 %Inh for Cc1cc(-c2ccc3c(c2)CC[C@@H](N[C@@H](C)c2ccccc2)C3)cnc1N.Cl [GW412617]
Reply | 0

Ask | Give DCAMKL2 %Inh for CC(C)(C)c1ccc(C(=O)Nc2cn3cc(-c4cccnc4)ccc3n2)cc1
Reply | 12

Ask | Give DCAMKL2 %Inh for COc1cccc(-c2cc(-c3c[nH]nc3-c3ccccn3)ccn2)c1 [GW680338]
Reply | 0

Ask | Give DCAMKL2 %Inh for CC(=O)Nc1nc2cnc(Nc3cc(NC(=O)c4cccc(CCC#N)c4)ccc3C)nc2s1
Reply | 13

Ask | Give DCAMKL2 %Inh for Cn1ccc2ncnc(Oc3ccc(NC(=O)Nc4ccccc4)cc3)c21
Reply | 0

Ask | Give DCAMKL2 %Inh for O=C(Nc1n[nH]c2cc(-c3cccc(F)c3F)ccc12)C1CC1 [SB-733894]
Reply | 0

Ask | Give DCAMKL2 %Inh for Cn1cncc1-c1ccc2ncnc(Nc3ccc(OCc4ccccc4)cc3)c2c1 [GW320571]
Reply | 0

Ask | Give DCAMKL2 %Inh for Cc1csc(-c2nc(Nc3ccncc3)c3ccccc3n2)n1 [GW869640]
Reply | 28

Ask | Give DCAMKL2 %Inh for COc1ccccc1-c1ccc2c(NC(=O)C3CC3)n[nH]c2n1 [SB-711239]
Reply | 3

Ask | Give DCAMKL2 %Inh for COC(=O)c1c(-c2ccccc2)c2cc(C(=O)O)ccc2c(=O)n1Cc1ccccc1
Reply | 4

Ask | Give DCAMKL2 %Inh for Nc1nc(-c2nccs2)c(-c2ccnc3ccccc23)s1 [GW693542]
Reply | 0

Ask | Give DCAMKL2 %Inh for COc1ccc(CNC(=O)NC2CCN(c3ccnc(Nc4cc(OC)c(OC)c(OC)c4)n3)C2)cc1 (stereo not drawn) [GSK1379748]
Reply | 0

Ask | Give DCAMKL2 %Inh for COc1cc2ncnc(Nc3ccc4nc(-c5ccccc5)[nH]c4c3)c2cc1OC.Cl [GW282450]
Reply | 0

Ask | Give DCAMKL2 %Inh for CN1C(=O)C(Nc2ccc(Cl)c(C(=O)O)c2)=C(c2ccc(Cl)cc2)C1=O [SB-404290]
Reply | 6

###

Tested on: GRK7
Conditions: concentration: 1 μM, replicates: in singlicate; n = 1
Reported %Inh is given for each of the following compounds.
Number only, in %; omit the unit.

Study these solved cases before continuing.
# compound, unit-tag, assay-value
data = [
    ("CC(=O)Nc1nc2cnc(Nc3cc(NC(=O)c4cccc(CCC#N)c4)ccc3C)nc2s1", "%", 6),
    ("O=C(Nc1n[nH]c2nc(-c3nccs3)c(Br)cc12)C1CC1", "%", 0),
    ("COc1ccccc1-c1ccc2c(NC(=O)C3CC3)n[nH]c2n1", "%", 0),
    ("CCn1c(-c2ccccn2)nc2cnccc21", "%", 0),
    ("O=c1cc(N2CCOCC2)nc2n(Cc3cccc(Cl)c3Cl)ccn12", "%", 0),
    ("NC(=O)c1nnc2ccccc2c1N", "%", 0),
    ("CS(=O)(=O)c1ccc(-c2nc3n(c2-c2ccncc2)CCC3)cc1", "%", 0),
    ("COc1cc(Nc2nccc(N3CCC(NC(=O)Nc4cc(C)ccc4C)C3)n2)cc(OC)c1OC (stereo not shown)", "%", 0),
]

Ask | Quick check: %Inh of O=C(O)COc1ncnc2cc(-c3ccc4[nH]ncc4c3)sc12 ?
Reply | 0

Ask | Quick check: %Inh of CC(C)(C)c1ccc(C(=O)Nc2cn3cc(-c4cccnc4)ccc3n2)cc1 ?
Reply | 24

###

Test system: RIPK2;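 further: kd values determined as follow-up on hits from a single-replicate KINOMEscan panel screen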
experimental-endpoint: Kd
Give the figure together with its unit, number first.

Ask | Give RIPK2 Kd for Cn1cncc1-c1ccc2ncnc(Nc3ccc(OCc4ccccc4)cc3)c2c1 [GW320571]
Reply | 91 nM

###

Tested on: RIPK4
Conditions: concentration: 1 μM, replicates: in singlicate; n = 1
Reported %Inh is given for each of the following molecules.
Number only, in %; omit the unit.

Ask | Quick check: %Inh of COc1ccc(CNC(=O)NC2CCN(c3ccnc(Nc4cc(OC)c(OC)c(OC)c4)n3)C2)cc1 (centres unmarked) [GSK1379748] ?
Reply | 28

Ask | Quick check: %Inh of Cc1cccc(-c2nc(Nc3ccncc3)c3ccccc3n2)n1 [GW855857] ?
Reply | 0

Ask | Quick check: %Inh of Cn1ccc2ncnc(Oc3cccc(C(=O)Nc4ccccc4)c3)c21 ?
Reply | 18

Ask | Quick check: %Inh of CC(=O)Nc1nc2cnc(Nc3cc(NC(=O)c4cccc(CCC#N)c4)ccc3C)nc2s1 ?
Reply | 0

Ask | Quick check: %Inh of Fc1cc(Cl)ccc1Nc1ccnc2cc(I)ccc12 [GW551191] ?
Reply | 12

###

Tested on: RSK3(Kin.Dom.1-N-terminal)
Construct: gene RPS6KA2
Settings: concentration: 1 μM, replicates: in singlicate; n = 1
experimental-endpoint: %Inh (%)
Number only, in %; omit the unit.

Study these solved cases before continuing.
# compound, experimental-target, %Inh [%]
measured = [
    ("Cc1nnc(-c2ccc3occ(-c4ccc(S(C)=O)cc4)c3c2)[nH]1 (centres unmarked)", "RSK3(Kin.Dom.1-N-terminal)", 0),
    ("Cc1ccc(NC(=O)Nc2cc(C(C)(C)C)nn2-c2ccccc2)cc1", "RSK3(Kin.Dom.1-N-terminal)", 18),
    ("COC(=O)c1c(-c2ccccc2)c2cc(OC)ccc2c(=O)n1Cc1ccccc1", "RSK3(Kin.Dom.1-N-terminal)", 8),
    ("Nc1ncnc2[nH]c(-c3ccccc3)nc12", "RSK3(Kin.Dom.1-N-terminal)", 0),
]

Let us move to another entry and its %Inh.
Ask | Quick check: %Inh of O=C(Nc1ccc2c(c1)OCO2)NC1CCN(c2ccnc(Nc3ccc(F)cc3)n2)C1 (centres unmarked) ?
Reply | 0

###

Tested on: TSSK1B
Conditions: concentration: 1 μM, replicates: in singlicate; n = 1
experimental-endpoint: %Inh (%)
Number only, in %; omit the unit.

Study these solved cases before continuing.
# smiles-input, %Inh / %
records = [
    ("CC(=O)Nc1nc2cnc(Nc3cc(NC(=O)c4cccc(CCC#N)c4)ccc3C)nc2s1", 2),
    ("Cn1cncc1-c1ccc2ncnc(Nc3ccc(OCc4ccccc4)cc3)c2c1", 29),
    ("COC(=O)c1c(-c2ccccc2)c2cc(OC)ccc2c(=O)n1Cc1ccccc1", 10),
]

Let us move to another entry and its %Inh.
Ask | Quick check: %Inh of Cl.NC(=O)c1cccc(Nc2nccc(Nc3ccc(Oc4cccc(Cl)c4)c(Cl)c3)n2)c1 ?
Reply | 0

###

Tested on: DCAMKL2
Construct: gene DCLK2
Conditions: concentration: 1 μM, replicates: in singlicate; n = 1
Reported %Inh is given for each of the following molecules.
Number only, in %; omit the unit.

Study these solved cases before continuing.
# smiles-input, assay-value
data = [
    ("Cc1cccc(-c2nc(Nc3ccc4[nH]ncc4c3)c3ccccc3n2)n1", 14),
    ("COc1cc2nccc(Nc3ccc(NC(=O)c4ccc(C)cc4)c(O)c3)c2cc1OC.Cl", 7),
    ("Cl.O=C(Nc1cccc(-c2nn3ncccc3c2-c2ccnc(Nc3cccnc3)n2)c1)c1c(F)cccc1F", 0),
]

Let us move to another entry and its %Inh.
Ask | Give DCAMKL2 %Inh for Cc1c(Cn2ccn3c(=O)cc(N4CCOCC4)nc23)cccc1C(F)(F)F
Reply | 0

###

Reported %Inh is given for each of the following compounds.
Test system: CSNK2A2
Settings: concentration: 1 μM, replicates: in singlicate; n = 1
Number only, in %; omit the unit.

# compound, %Inh, %
records = [
    ("C[C@@H]1CCCCN1c1cc(-c2ccc3c(N)n[nH]c3c2)nc(N)n1", 76),
]

Ask | Quick check: %Inh of Cn1ccc2ncnc(Oc3ccc(NC(=O)Nc4ccccc4)cc3)c21 ?
Reply | 0

Ask | Quick check: %Inh of COc1ccc(Nc2nccc(-c3cccc(NC(=O)c4cc5cc(F)ccc5[nH]4)c3)n2)cc1 ?
Reply | 27

Ask | Quick check: %Inh of CC1=C(C(=O)Nc2cc3cn[nH]c3cc2F)C(c2ccc(C(F)(F)F)cc2)CC(=O)N1 (stereo not shown) ?
Reply | 0

Ask | Quick check: %Inh of O=C(Nc1n[nH]c2nc(-c3nccs3)c(Br)cc12)C1CCCC1 ?
Reply | 0

Ask | Quick check: %Inh of Cc1ccccc1-n1cnc2c(N)ncnc21 ?
Reply | 0

Ask | Quick check: %Inh of Cc1nnc(-c2ccc3occ(-c4ccc(S(C)=O)cc4)c3c2)[nH]1 (stereo not shown) ?
Reply | 72

Ask | Quick check: %Inh of COC(=O)c1c(-c2ccccc2)c2cc(C(=O)O)ccc2c(=O)n1Cc1ccccc1 ?
Reply | 0

Ask | Quick check: %Inh of Cc1cccc(-c2nc(Nc3ccncc3)c3ccccc3n2)n1 ?
Reply | 0

Taken from paper PMC5540273.
